target: MAPK14 (human); experiment: Cell-Based Assay; conditions: thp1
pEC50: −log10 of the molar value.
Below is a list of entries, each paired with its recorded pEC50 value.

>  <structure smiles string>
CC(C)(C)c1cc(NC(=O)Nc2ccc(Cl)cc2)n(-c2ccccc2)n1

>  <study target>
MAPK14 (human)

>  <pEC50>
6.00

$$$$
>  <structure smiles string>
CC(C)(C)c1cc(NC(=O)Nc2cccc(N)c2)n(-c2ccccc2)n1

>  <study target>
MAPK14 (human)

>  <pEC50>
6.00

$$$$
>  <structure smiles string>
Cc1cccc(NC(=O)Nc2cc(C(C)(C)C)nn2-c2ccccc2)c1C

>  <study target>
MAPK14 (human)

>  <pEC50>
6.39

$$$$
